Test system: Klebsiella pneumoniae
Measurement Notes: Antibacterial activity against Klebsiella pneumoniae 09-23 after 18 to 24 hrs by NCCLS M100-S11 two fold serial dilution method
Assay type: functional
MIC less than 2 µg/mL is met; MIC greater than or equal to 2 µg/mL is not met.

- Molecule: "COc1c(N2CCN(O)C(C)C2)c(F)cc2c(=O)c(C(=O)O)cn(C3CC3)c12 (stereo not drawn)"
  Classification: "not met"
- Molecule: "COc1c(N2CCN(C/C(C)=N/Nc3ccccc3)C(C)C2)c(F)cc2c(=O)c(C(=O)O)cn(C3CC3)c12 (stereo not drawn)"
  Classification: "met"
- Molecule: "COc1c(N2CCN(CC/C(C)=N/Nc3ccccc3)C(C)C2)c(F)cc2c(=O)c(C(=O)O)cn(C3CC3)c12 (stereo not drawn)"
  Classification: "met"
- Molecule: "CCO/N=C(\\C)CCN1CCN(c2c(F)cc3c(=O)c(C(=O)O)cn(C4CC4)c3c2OC)CC1C (stereo not drawn)"
  Classification: "not met"
- Molecule: "COc1c(N2CCN(C/C(C)=N/NC(N)=O)C(C)C2)c(F)cc2c(=O)c(C(=O)O)cn(C3CC3)c12 (stereo not drawn)"
  Classification: "not met"
- Molecule: "COc1c(N2CCN(CCC#N)C(C)C2)c(F)cc2c(=O)c(C(=O)O)cn(C3CC3)c12 (stereo not drawn)"
  Classification: "not met"
